Sequence of the target: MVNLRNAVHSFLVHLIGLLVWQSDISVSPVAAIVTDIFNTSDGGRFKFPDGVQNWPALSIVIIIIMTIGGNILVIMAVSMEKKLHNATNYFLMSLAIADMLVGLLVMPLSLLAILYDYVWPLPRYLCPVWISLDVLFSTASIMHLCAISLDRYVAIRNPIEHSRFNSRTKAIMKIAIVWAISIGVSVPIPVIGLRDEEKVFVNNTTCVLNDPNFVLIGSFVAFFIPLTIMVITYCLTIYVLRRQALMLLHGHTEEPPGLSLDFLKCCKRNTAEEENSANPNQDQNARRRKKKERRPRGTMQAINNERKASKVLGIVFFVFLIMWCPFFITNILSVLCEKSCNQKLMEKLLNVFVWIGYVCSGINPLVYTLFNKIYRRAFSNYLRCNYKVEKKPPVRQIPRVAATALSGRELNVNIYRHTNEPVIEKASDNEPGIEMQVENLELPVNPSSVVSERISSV
I'd appreciate it if you marked entries TRUE when Ki is lower than 300 nM and FALSE when it is not.

Known results for compounds:
record_smiles=Nc1ccccc1C(=O)CCCN1CC[C@@H]2[C@H](C1)c1cccc3c1N2CCCC3 cat=TRUE
record_smiles=CNc1ccccc1C(=O)CCCN1CC[C@H]2[C@@H](C1)c1cccc3c1N2CCCS3 cat=TRUE
record_smiles=O=C(CCCN1CC[C@H]2[C@@H](C1)c1cccc3c1N2CCCS3)c1ccc(F)cc1 cat=FALSE
record_smiles=Nc1ccccc1C(=O)CCCN1CC[C@@H]2[C@H](C1)c1cccc3c1N2CCC3 cat=TRUE
record_smiles=Nc1cc(O)ccc1C(=O)CCCN1CC[C@H]2[C@@H](C1)c1cccc3c1N2CCCS3 cat=TRUE

Asked: For Nc1cc(F)ccc1C(=O)CCCN1CC[C@@H]2[C@H](C1)c1cccc3c1N2CCS3 , is the recorded Ki below the cut-off of 300 nM?
Given back: TRUE

Asked: What do you have for Nc1cc(F)ccc1C(=O)CCCN1CC[C@H]2[C@@H](C1)c1cccc3c1N2CCC3 ?
Given back: TRUE

Asked: Input Nc1ccccc1C(=O)CCCN1CC[C@@H]2[C@H](C1)c1cccc3c1N2CCO3
Given back: FALSE

Asked: Lookup Nc1ccccc1C(=O)CCCN1CC[C@H]2[C@@H](C1)c1cccc3c1N2CCS3
Given back: FALSE

====

Exercise: state measured pKi for each of the compounds provided.
assayed.system: D(2) dopamine receptor (Homo sapiens, UniProt P14416)
Sequence (P14416 whole entry): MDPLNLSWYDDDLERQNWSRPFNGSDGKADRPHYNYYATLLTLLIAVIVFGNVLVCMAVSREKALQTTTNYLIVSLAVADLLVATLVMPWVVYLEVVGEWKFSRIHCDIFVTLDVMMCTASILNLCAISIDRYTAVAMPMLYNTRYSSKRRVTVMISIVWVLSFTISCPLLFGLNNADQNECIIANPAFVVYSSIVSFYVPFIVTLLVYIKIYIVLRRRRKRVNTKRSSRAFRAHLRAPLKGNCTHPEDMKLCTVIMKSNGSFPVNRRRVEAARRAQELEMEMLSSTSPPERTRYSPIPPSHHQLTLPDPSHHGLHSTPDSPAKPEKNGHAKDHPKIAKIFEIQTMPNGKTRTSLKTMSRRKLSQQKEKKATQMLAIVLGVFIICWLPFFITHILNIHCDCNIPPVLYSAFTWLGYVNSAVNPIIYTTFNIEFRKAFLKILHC
test.details: Binding affinity towards DA D2 receptor using [3H]N-methyl-spiperone as radioligand.
Give bare numbers, as −log10 of the molar value.

Example entries begin here.
compound=Nc1ccccc1C(=O)CCCN1CC[C@@H]2[C@H](C1)c1cccc3c1N2CCC3 quantitative_result=7.20
compound=Nc1ccccc1C(=O)CCCN1CC[C@H]2[C@@H](C1)c1cccc3c1N2CCC3 quantitative_result=7.17
compound=Nc1ccc(F)cc1C(=O)CCCN1CC[C@H]2[C@@H](C1)c1cccc3c1N2CCCS3 quantitative_result=7.82
compound=O=C(CCCN1CC[C@H]2[C@@H](C1)c1cccc3c1N2CCCS3)c1ccc(F)cc1 quantitative_result=8.06
compound="Nc1cc(F)ccc1C(=O)CCCN1CC[C@H]2[C@@H](C1)c1cccc3c1N2CCCS3 (stereo in doubt; 6)" quantitative_result=8.39

State recorded pKi for all listed compounds.
1. Nc1cc(O)ccc1C(=O)CCCN1CC[C@H]2[C@@H](C1)c1cccc3c1N2CCCS3
2. O=C(CCCN1CC[C@H]2[C@@H](C1)c1cccc3c1N2CCCS3)c1ccccc1
3. Nc1ccccc1C(=O)CCCN1CC[C@H]2[C@@H](C1)c1cccc3c1N2CCS3
4. CCOC(=O)Nc1cc(F)ccc1C(=O)CCCN1CC[C@H]2[C@@H](C1)c1cccc3c1N2CCCS3

Given back:
1: 7.30; 2: 7.77; 3: 7.39; 4: 7.82

====

Please respond with reported Ki for every item in the list.
Target protein (sequence): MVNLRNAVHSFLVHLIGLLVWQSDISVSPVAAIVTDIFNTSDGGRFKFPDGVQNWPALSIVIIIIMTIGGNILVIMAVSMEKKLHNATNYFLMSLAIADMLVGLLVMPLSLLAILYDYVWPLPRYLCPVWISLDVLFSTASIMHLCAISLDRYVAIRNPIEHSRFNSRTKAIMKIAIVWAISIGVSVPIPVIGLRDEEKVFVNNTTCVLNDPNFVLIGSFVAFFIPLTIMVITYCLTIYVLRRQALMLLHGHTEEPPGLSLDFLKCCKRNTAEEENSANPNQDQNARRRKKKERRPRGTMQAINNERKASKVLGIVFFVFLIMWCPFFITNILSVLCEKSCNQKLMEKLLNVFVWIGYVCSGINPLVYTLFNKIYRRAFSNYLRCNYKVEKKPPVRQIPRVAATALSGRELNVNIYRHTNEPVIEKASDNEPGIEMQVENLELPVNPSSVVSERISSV
One number for each entry, in nM.

In the examples that follow, each entry is paired with its recorded Ki.
compound=Nc1ccccc1C(=O)CCCN1CC[C@H]2[C@@H](C1)c1cccc3c1N2CCC3 endpoint=Ki display_unit=nM quantitative_result=106
compound=Nc1ccccc1C(=O)CCCN1CC[C@H]2[C@@H](C1)c1cccc3c1N2CCCC3 endpoint=Ki display_unit=nM quantitative_result=106
compound="Nc1cc(F)ccc1C(=O)CCCN1CC[C@H]2[C@@H](C1)c1cccc3c1N2CCCS3 (stereo in doubt; 6)" endpoint=Ki display_unit=nM quantitative_result=106

Hello, I would appreciate it if you could give Ki for each entry below.
1. Nc1cc(F)ccc1C(=O)CCCN1CC[C@H]2[C@@H](C1)c1cccc3c1N2CCCC3
2. Nc1cc(F)ccc1C(=O)CCCN1CC[C@H]2[C@@H](C1)c1cccc3c1N2CCS3

Given back:
1. 136
2. 90

====

assayed.system: UniProtKB P14416
test.details: Binding affinity towards DA D2 receptor using [3H]N-methyl-spiperone as radioligand.
endpoint: pKi
One number for each entry, as −log10 of the molar value.

Take a look at these entries with their results.
molecule="Nc1cc(F)ccc1C(=O)CCCN1CC[C@H]2[C@@H](C1)c1cccc3c1N2CCCS3 (stereo in doubt; (+)-6)" assayed_system="UniProtKB P14416" endpoint=pKi quantitative_result=8.57
molecule=CCNC(=O)Nc1cc(F)ccc1C(=O)CCCN1CC[C@H]2[C@@H](C1)c1cccc3c1N2CCCS3 assayed_system="UniProtKB P14416" endpoint=pKi quantitative_result=7.59
molecule="Nc1ccccc1C(=O)CCCN1CC[C@H]2[C@@H](C1)c1cccc3c1N2CCCS3 (stereo in doubt; (+)-4)" assayed_system="UniProtKB P14416" endpoint=pKi quantitative_result=7.82
molecule=CNc1ccccc1C(=O)CCCN1CC[C@H]2[C@@H](C1)c1cccc3c1N2CCCS3 assayed_system="UniProtKB P14416" endpoint=pKi quantitative_result=7.51
molecule=Nc1ccccc1C(=O)CCCN1CC[C@@H]2[C@H](C1)c1cccc3c1N2CCCS3 assayed_system="UniProtKB P14416" endpoint=pKi quantitative_result=8.23
molecule=Nc1cc(F)ccc1C(=O)CCCN1CC[C@H]2[C@@H](C1)c1cccc3c1N2CCS3 assayed_system="UniProtKB P14416" endpoint=pKi quantitative_result=8.40
molecule=Nc1cc(F)ccc1C(=O)CCCN1CC[C@H]2[C@@H](C1)c1cccc3c1N2CCO3 assayed_system="UniProtKB P14416" endpoint=pKi quantitative_result=8.64
molecule=Nc1cc(F)ccc1C(=O)CCCN1CC[C@@H]2[C@H](C1)c1cccc3c1N2CCCC3 assayed_system="UniProtKB P14416" endpoint=pKi quantitative_result=7.72

Your task in this section: give pKi for each listed record.
1. Nc1ccccc1C(=O)CCCN1CC[C@@H]2[C@H](C1)c1cccc3c1N2CCCC3
2. Nc1ccccc1C(=O)CCCN1CC[C@H]2[C@@H](C1)c1cccc3c1N2CCCS3 (stereo in doubt; 4)
3. Nc1cc(Br)ccc1C(=O)CCCN1CC[C@H]2[C@@H](C1)c1cccc3c1N2CCCS3
4. Nc1cc(F)ccc1C(=O)CCCN1CC[C@@H]2[C@H](C1)c1cccc3c1N2CCO3
5. Nc1cc(F)ccc1C(=O)CCCN1CC[C@H]2[C@@H](C1)c1cccc3c1N2CCC3
6. Nc1ccccc1C(=O)CCCN1CC[C@@H]2[C@H](C1)c1cccc3c1N2CCO3
7. CS(=O)(=O)Nc1cc(F)ccc1C(=O)CCCN1CC[C@H]2[C@@H](C1)c1cccc3c1N2CCCS3
8. Nc1ccccc1C(=O)CCCN1CC[C@@H]2[C@H](C1)c1cccc3c1N2CCS3

Given back:
1. 7.70
2. 8.22
3. 8.33
4. 7.80
5. 8.28
6. 7.22
7. 7.74
8. 7.72

// input: 2 molecules below; output: pKi for each
1. Nc1ccccc1C(=O)CCCN1CC[C@H]2[C@@H](C1)c1cccc3c1N2CCO3
2. Nc1cc(F)ccc1C(=O)CCCN1CC[C@@H]2[C@H](C1)c1cccc3c1N2CCCS3

Given back:
[7.64, 8.33]

Please look at the items below and tell me pKi for each one, in order.
1. Nc1c(F)cccc1C(=O)CCCN1CC[C@H]2[C@@H](C1)c1cccc3c1N2CCCS3
2. O=CNc1cc(F)ccc1C(=O)CCCN1CC[C@H]2[C@@H](C1)c1cccc3c1N2CCCS3
3. Nc1cc(Cl)ccc1C(=O)CCCN1CC[C@H]2[C@@H](C1)c1cccc3c1N2CCCS3
4. CC(=O)Nc1cc(F)ccc1C(=O)CCCN1CC[C@H]2[C@@H](C1)c1cccc3c1N2CCCS3
5. Nc1cc(F)ccc1C(=O)CCCN1CC[C@H]2[C@@H](C1)c1cccc3c1N2CCCC3
6. Nc1cc(F)ccc1C(=O)CCCN1CC[C@@H]2[C@H](C1)c1cccc3c1N2CCS3
7. Nc1ccccc1C(=O)CCCN1CC[C@H]2[C@@H](C1)c1cccc3c1N2CCCC3

Given back:
1: 7.85; 2: 8.11; 3: 8.64; 4: 8.47; 5: 8.46; 6: 7.85; 7: 7.96

Asked: Reported pKi for Nc1cc(F)ccc1C(=O)CCCN1CC[C@@H]2[C@H](C1)c1cccc3c1N2CCC3 : what is it?
Given back: 7.54
